# measurement_target: T1, RSV-F.mmh (Respiratory Syncytial Virus)
# T1 construct: also called recombinant RSV-F; soluble monomeric RSV-F
# method: SPR (Biacore), mAb captured via Fc, soluble RSV-F.mmh injected, 25 C
For each entry below, report its kon value.
Answers are plain numbers, in M⁻¹ s⁻¹.

Worked examples, 2 binders total:
Reported kon for H1H3604P (antibody, V domains shown) VH: QVQLVESGGGLVKPGGSLRLSCAASGFTFSDYYMTWIRQAPGRGLEWVSYISDTGSHLYYADSVRGRFTISRDNAKNSLYLQMNNLRAEDTAVYYCARDQDGEMELRFFDYWGQGTLVTVSS VL: EIVLTQSPATLSLSPGERGTLSCRASQSINNYLAWYQQKPGQAPRLLIFDASNRATGIPARFSGSGSGTDFTLTISRIEPEDFAVYYCQQRTNWPLTFGGGTKVEIK : what is it?
3100

Given H1H3627N (antibody, V domains shown) VH: EVQLVESGGGLVQPGGSLRLSCAASGFTISNYEMNWVRQAPGKGLEWVSYISTSGITIYYADSVQGRFTISRDNAKNSLYLQLNSLRAEDTAVYYCARGYCTNGVCYPHYYYSDMDVWGQGTTVTVSS VL: DIQMTQSPSSLSASVGDRLTITCRASQTISTYLNWFQQKVGNAPKLLIYSTSSLQSGVPARFSGSGSGTDFTLTISSLQPEDFATYYCQQSYSSPPTFGQGTKVEIK , state its recorded kon.
256000

Consider the additional binder presented here.
Dear colleague, I am looking for the recorded kon of the following binder: H1H3565P (antibody, V domains shown) VH: QVQLVESGGGVVQPGRSLRLSCAASGFTFNSYGMHWVRQAPGKGLEWVTFIWSDGSNKYYLDSVKGRFTISRDNSKNTLYLQMNSLRAEDTAVYYCARSGLASYYYYGMDVWGQGTTVTVSS VL: DIQMTQSPSSLSASVGDRVTITCRASQGIRNDLGWYQQKPGKAPKRLIYGASSLQSGVPSRFSGSGSGTEFTLTISSLQPEDFATYSCLQHNSYPWTFGQGTKVEIK
19300

src = patent US20140271653A1
